# assay.protocol: cells
# assay.setup: Mus musculus, B16-4A5, 72 h, read-out: INH
# Description: Antimelanogenic activity in theophylline-stimulated mouse B16-4A5 cells assessed as inhibition of melanogenesis at 30 uM after 72 hrs relative to control
Let's look at some molecules and their measured inhibition at 30 µM.
The answer is to be given in %; state only the numeric part.

Example entries begin here.
OC[C@H]1O[C@@H](Oc2ccc(O)cc2)[C@H](O)[C@@H](O)[C@@H]1O : 20.4
O=C/C=C/c1ccc(O)cc1 [p-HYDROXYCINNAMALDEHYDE] : 67.4
OC/C=C/c1ccc(O)cc1 : 35.8
CC(=O)OC/C=C/c1ccc(O)cc1 : -3
COc1cc(/C=C/CO)ccc1OC(C)=O : 102
COc1cc(C=O)ccc1O : 49.7
CCC(=O)c1ccc(O)cc1 : -1.9

Incoming: Could you tell me which inhibition at 30 µM is on file for O=Cc1ccc(O)cc1 [4-HYDROXYBENZALDEHYDE] ?
Outgoing: 7.9

----------
# assay.protocol: cells
# assay.setup: Mus musculus, B16-4A5, 72 h, read-out: INH
result.type: inhibition at 30 µM (%)
The answer is to be given in %; state only the numeric part.

Incoming: Could you tell me which inhibition at 30 µM is on file for `CC(=O)Oc1ccc(/C=C/CO)cc1` ?
Outgoing: 96.9

Incoming: And `C=C[C@H](O)c1ccc(OC(C)=O)c(OC)c1` ?
Outgoing: 11.7

Incoming: And `COC/C=C/c1ccc(O)cc1` ?
Outgoing: 56.9

Incoming: And `COc1cc(/C=C/C=O)ccc1O` ?
Outgoing: 100

Incoming: And `COc1cc(/C=C/CO)ccc1O` ?
Outgoing: 64.2

Incoming: And `CC[C@H](OC(C)=O)c1ccc(OC(C)=O)cc1` ?
Outgoing: 74.1

Incoming: And `C=C[C@H](O)c1ccc(OC(C)=O)cc1` ?
Outgoing: 14.9

----------
# assay.protocol: Antimelanogenic activity in theophylline-stimulated mouse B16-4A5 cells assessed as inhibition of melanogenesis at 10 uM after 72 hrs relative to control
# Type: functional
# assay.setup: B16-4A5, 72 h
Let's look at some molecules and their measured inhibition at 10 µM.
The answer is to be given in %; state only the numeric part.

Example entries begin here.
CCC(=O)c1ccc(O)cc1 : -3.6
COc1cc(/C=C/C=O)ccc1O : 23.7

Incoming: Could you tell me which inhibition at 10 µM is on file for `COc1cc(/C=C/CO)ccc1O` ?
Outgoing: 44.5

Incoming: And `COc1cc(C=O)ccc1O` ?
Outgoing: 8.4

Incoming: And `C=C[C@H](OC/C=C/c1ccc(O)cc1)c1ccc(O)cc1` ?
Outgoing: 70.5

Incoming: And `CC(=O)Oc1ccc(/C=C/CO)cc1` ?
Outgoing: 18

----------
# assay.protocol: Cytotoxicity against theophylline-stimulated mouse B16-4A5 cells assessed as cell viability at 300 uM after 72 hrs by MTT assay relative to control
# Assay type: toxicity
# assay.setup: theophylline-stimulated B16-4A5 cells, read-out: Activity
result.type: viability at 72 h, 300 µM (%)
The answer is to be given in %; state only the numeric part.

Incoming: Could you tell me which viability at 72 h, 300 µM is on file for OC[C@H]1O[C@@H](Oc2ccc(O)cc2)[C@H](O)[C@@H](O)[C@@H]1O [ARBUTIN] ?
Outgoing: 79.8

----------
Let's look at some compounds and their measured inhibition at 10 µM.
# assay.protocol: Antimelanogenic activity in theophylline-stimulated mouse B16-4A5 cells assessed as inhibition of melanogenesis at 10 uM after 72 hrs relative to control
# Type: functional
# assay.setup: B16-4A5, 72 h
The answer is to be given in %; state only the numeric part.

C=C[C@H](OC/C=C/c1ccc(OC(C)=O)cc1)c1ccc(OC(C)=O)cc1 : 117
O=C/C=C/c1ccc(O)cc1 [p-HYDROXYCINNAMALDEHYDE] : 12.8
C=C[C@@H](OC/C=C/c1ccc(OC(C)=O)cc1)c1ccc(OC(C)=O)cc1 : 137
O=Cc1ccc(O)cc1 [4-HYDROXYBENZALDEHYDE] : 4.2
C=C[C@H](OC(C)=O)c1ccc(OC(C)=O)cc1 [1'-ACETOXYCHAVICOL ACETATE] : 73.1

Incoming: Could you tell me which inhibition at 10 µM is on file for `COc1cc(/C=C/CO)ccc1OC(C)=O` ?
Outgoing: 12.9

----------
# assay.protocol: Antimelanogenic activity in theophylline-stimulated mouse B16-4A5 cells assessed as inhibition of melanogenesis at 10 uM after 72 hrs relative to control
# Assay type: functional
# assay.setup: B16-4A5, 72 h
result.type: inhibition at 10 µM (%)
The answer is to be given in %; state only the numeric part.

Example entries begin here.
OC/C=C/c1ccc(O)cc1 : -2.8
C=CC(OC/C=C/c1ccc(O)cc1)c1ccc(O)cc1 (racemic) : 77.4
C=CC(OC/C=C/c1ccc(OC(C)=O)cc1)c1ccc(OC(C)=O)cc1 (racemic) : -5.5
C=C[C@H](O)c1ccc(OC(C)=O)cc1 : -0.4
C=C[C@H](OC(C)=O)c1ccc(OC(C)=O)c(OC)c1 : 84.4
COC/C=C/c1ccc(O)cc1 : 25.1
CC(=O)OC/C=C/c1ccc(O)cc1 : 0
C=C[C@@H](OC/C=C/c1ccc(O)cc1)c1ccc(O)cc1 : 80.2

Incoming: Could you tell me which inhibition at 10 µM is on file for `C=C[C@H](O)c1ccc(OC(C)=O)c(OC)c1` ?
Outgoing: 10.9

Incoming: And C=CC(OC(C)=O)c1ccc(OC(C)=O)cc1 (racemic) ?
Outgoing: 103

Incoming: And `C=C[C@@H](OC(C)=O)c1ccc(OC(C)=O)cc1` ?
Outgoing: 69.2

Incoming: And `CC[C@H](OC(C)=O)c1ccc(OC(C)=O)cc1` ?
Outgoing: 44.5

----------
# assay.protocol: Downregulation of TRP1 expression in theophylline-stimulated mouse B16-4A5 cells assessed as ratio of TRP1 mRNA expression to beta-actin mRNA expression at 10 uM after 72 hrs by qRT-PCR analysis (reference value: […] +/- […])
# Type: functional, cell-based
Record satisfied whenever Ratio is at 0.5 or higher; record not satisfied when lower.

Incoming: Check if Ratio >= 0.5 (inclusive). Item: C=CC(OC/C=C/c1ccc(OC(C)=O)cc1)c1ccc(OC(C)=O)cc1 (racemic)
Outgoing: satisfied

Incoming: And `C=C[C@H](OC(C)=O)c1ccc(OC(C)=O)c(OC)c1` ?
Outgoing: not satisfied

Incoming: And `C=C[C@@H](OC/C=C/c1ccc(OC(C)=O)cc1)c1ccc(OC(C)=O)cc1` ?
Outgoing: satisfied

Incoming: And `C=C[C@H](OC/C=C/c1ccc(OC(C)=O)cc1)c1ccc(OC(C)=O)cc1` ?
Outgoing: satisfied

----------
Let's look at some compounds and their measured viability at 72 h, 3 µM.
# assay.protocol: Cytotoxicity against theophylline-stimulated mouse B16-4A5 cells assessed as cell viability at 3 uM after 72 hrs by MTT assay relative to control
# Assay type: toxicity
# assay.setup: theophylline-stimulated B16-4A5 cells, read-out: Activity
The answer is to be given in %; state only the numeric part.

C=C[C@@H](OC/C=C/c1ccc(O)cc1)c1ccc(O)cc1 : 103
CC(=O)Oc1ccc(/C=C/CO)cc1 : 92.9
C=C[C@H](OC(C)=O)c1ccc(OC(C)=O)c(OC)c1 : 101
C=CC(OC/C=C/c1ccc(OC(C)=O)cc1)c1ccc(OC(C)=O)cc1 (racemic) : 85.2
COc1cc(/C=C/C=O)ccc1O : 101
C=C[C@H](O)c1ccc(OC(C)=O)cc1 : 87.9

Query compound follows.
Incoming: Could you tell me which viability at 72 h, 3 µM is on file for `CCC(=O)c1ccc(O)cc1` ?
Outgoing: 111

----------
Let's look at some molecules and their measured viability at 72 h, 0.3 µM.
# assay.protocol: Cytotoxicity against theophylline-stimulated mouse B16-4A5 cells assessed as cell viability at 0.3 uM after 72 hrs by MTT assay relative to control
# Type: toxicity
# assay.setup: theophylline-stimulated B16-4A5 cells, read-out: Activity
A complete answer gives the number followed by the unit.

Example entries begin here.
C=C[C@H](OC/C=C/c1ccc(O)cc1)c1ccc(O)cc1 : 111%
C=C[C@H](OC(C)=O)c1ccc(OC(C)=O)cc1 [1'-ACETOXYCHAVICOL ACETATE] : 103%
C=C[C@H](OC/C=C/c1ccc(OC(C)=O)cc1)c1ccc(OC(C)=O)cc1 : 98.1%
C=CC(OC/C=C/c1ccc(O)cc1)c1ccc(O)cc1 (racemic) : 102%
C=C[C@@H](OC(C)=O)c1ccc(OC(C)=O)cc1 : 96.6%
C=C[C@@H](OC/C=C/c1ccc(OC(C)=O)cc1)c1ccc(OC(C)=O)cc1 : 107%

Query molecule follows.
Incoming: Could you tell me which viability at 72 h, 0.3 µM is on file for `C=C[C@@H](OC/C=C/c1ccc(O)cc1)c1ccc(O)cc1` ?
Outgoing: 106%
